experiment_description: Vitreous pharmacokinetics after oral or subconjunctival administration
Format: in vivo, mouse
reported_conditions: local (subconjunctival), DMSO 31.4 mM, 314 nmol per eye; mice
readout_kind: Cmax (nM)
# number only, unit nM dropped from output

Qu. Consider the compound shown here: COc1cc(Nc2ncc(F)c(Nc3ccc4c(n3)NC(=O)C(C)(C)O4)n2)cc(OC)c1OC.O=S(=O)(O)c1ccccc1 [R406 phenylsulfonate salt] What is its recorded Cmax?
Ans. 892

----------
experiment_description: Co-solvent solution formulation solubility matrix
Type: physicochemical
reported_conditions: aqueous buffer; Trial 4: 3% Glycerin, 97% PBS; read-out: R788 Solubility
readout_kind: solubility (µM)
# number only, unit µM dropped from output

Qu. Consider the compound shown here: COc1cc(Nc2ncc(F)c(Nc3ccc4c(n3)N(COP(=O)(O)O)C(=O)C(C)(C)O4)n2)cc(OC)c1OC [R788] What is its recorded solubility?
Ans. 1130

----------
experiment_description: Intraocular and plasma R406 after topical administration (eye drops)
Type: in vivo, mouse
reported_conditions: topical delivery in cyclodextrin drops; sustainable via repeated dosing; mice; read-out: vitreous Cmax / intraocular concentration
readout_kind: Cmax

Qu. Consider the compound shown here: CCCCCCCCCCCCCCCC(=O)O.COc1cc(Nc2ncc(F)c(Nc3ccc4c(n3)NC(=O)C(C)(C)O4)n2)cc(OC)c1OC [R406 palmitate salt] What is its recorded Cmax?
Ans. > 1000 nM

----------
experiment_description: Co-solvent solution formulation solubility matrix
Assay type: physicochemical
reported_conditions: aqueous with cosolvent or surfactant or cyclodextrin; Trial 5: 5% Cremaphor-eL, 95% PBS; read-out: R788 Solubility
readout_kind: solubility (µM)
# number only, unit µM dropped from output

Qu. Consider the molecule shown here: COc1cc(Nc2ncc(F)c(Nc3ccc4c(n3)N(COP(=O)(O)O)C(=O)C(C)(C)O4)n2)cc(OC)c1OC [R788] What is its recorded solubility?
Ans. 1430

----------
experiment_description: Co-solvent solution formulation solubility matrix
Assay type: physicochemical
reported_conditions: aqueous with cosolvent or surfactant or cyclodextrin; Trial 14: 2% PEG-8000, 5% Cremaphor-eL, 15% pPPG, 4% Tween-80, 74% PBS; read-out: R788 Solubility
readout_kind: solubility (mM)
# number only, unit mM dropped from output

Qu. Consider the compound shown here: COc1cc(Nc2ncc(F)c(Nc3ccc4c(n3)N(COP(=O)(O)O)C(=O)C(C)(C)O4)n2)cc(OC)c1OC What is its recorded solubility?
Ans. 3.47

----------
experiment_description: Co-solvent solution formulation solubility matrix
Format: physicochemical
reported_conditions: Trial 2: 2% PEG-8000, 98% PBS; read-out: R788 Solubility
readout_kind: solubility (mM)
# number only, unit mM dropped from output

Qu. Consider the compound shown here: COc1cc(Nc2ncc(F)c(Nc3ccc4c(n3)N(COP(=O)(O)O)C(=O)C(C)(C)O4)n2)cc(OC)c1OC What is its recorded solubility?
Ans. 3.56

----------
experiment_description: Co-solvent solution formulation solubility matrix
Assay type: physicochemical
reported_conditions: aqueous buffer; Trial 3: 0.5% EtOH, 99.5% PBS; read-out: R788 Solubility
readout_kind: solubility

Qu. Consider the molecule shown here: COc1cc(Nc2ncc(F)c(Nc3ccc4c(n3)N(COP(=O)(O)O)C(=O)C(C)(C)O4)n2)cc(OC)c1OC What is its recorded solubility?
Ans. 1010 µM

----------
experiment_description: Co-solvent solution formulation solubility matrix
Type: physicochemical
reported_conditions: aqueous with cosolvent or surfactant or cyclodextrin; Trial 1: 0.1% Tyloxapol, 99.9% PBS; read-out: R788 Solubility
readout_kind: solubility (µM)
# number only, unit µM dropped from output

Qu. Consider the compound shown here: COc1cc(Nc2ncc(F)c(Nc3ccc4c(n3)N(COP(=O)(O)O)C(=O)C(C)(C)O4)n2)cc(OC)c1OC What is its recorded solubility?
Ans. 1230

Every entry's value here was drawn from paper PMC4213378.
